biological target: T1, Anti-PSMA Fab; experiment: clonal phage ELISA on biotinylated PSMA Fab captured on neutravidin plates, anti-M13-HRP detection;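 further: crude clonal phage supernatants added to wells preincubated with PSMA antigen or with blocking buffer only (no wash between), briefly incubated, then washed before detecting bound phage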
T1 construct: also called 006 PSMA Fab
Where no end group is shown, it is not given here.
assay_readout: Phage binding ELISA signal, Anti-PSMA Fab
Form field (numeric): enter value without unit.

binder	result
MLRSCVPPWMCAGF (cysteine pairing not given here; also: displayed on phage as fusion to pIII, junction not given here, Clone of the Peptide-180 optimisation library, tested as clonal phage supernatant) [Phage-3788]	1.32
VHMACTPWWMCVGF (Clone of the Peptide-180 optimisation library, tested as clonal phage supernatant) [Phage-3791]	1.32
VEYLCKPVWMCQGF (Clone of the Peptide-180 optimisation library, tested as clonal phage supernatant) [Phage-3797]	1.31
MERSCIPDWMCLGF (Clone of the Peptide-180 optimisation library, tested as clonal phage supernatant) [Phage-3796]	1.31
HMQYCIPQWMCHGF (Clone of the Peptide-180 optimisation library, tested as clonal phage supernatant) [Phage-3792]	1.32

Given LKVECRPLWMCEGF (Clone of the Peptide-180 optimisation library, tested as clonal phage supernatant) [Phage-3787] , state its recorded Phage binding ELISA signal, Anti-PSMA Fab.
1.32

Given VSQLCIPEWMCIGI (Clone of the Peptide-180 optimisation library, tested as clonal phage supernatant) [Phage-3790] , state its recorded Phage binding ELISA signal, Anti-PSMA Fab.
1.32

Given FAFDCVPKWMCTGF (Clone of the Peptide-180 optimisation library, tested as clonal phage supernatant) [Phage-3793] , state its recorded Phage binding ELISA signal, Anti-PSMA Fab.
1.31

Given DLIYCRPAWMCDGF (Clone of the Peptide-180 optimisation library, tested as clonal phage supernatant) [Phage-3795] , state its recorded Phage binding ELISA signal, Anti-PSMA Fab.
1.31

Given EMIRCEPRWMCSGF (cysteine pairing not given here; also: displayed on phage as fusion to pIII, junction not given here, Clone of the Peptide-180 optimisation library, tested as clonal phage supernatant) [Phage-3786] , state its recorded Phage binding ELISA signal, Anti-PSMA Fab.
1.32
